Target: Human immunodeficiency virus type 1 integrase (Human immunodeficiency virus 1, UniProt Q7ZJM1)
Sequence (Q7ZJM1 whole entry): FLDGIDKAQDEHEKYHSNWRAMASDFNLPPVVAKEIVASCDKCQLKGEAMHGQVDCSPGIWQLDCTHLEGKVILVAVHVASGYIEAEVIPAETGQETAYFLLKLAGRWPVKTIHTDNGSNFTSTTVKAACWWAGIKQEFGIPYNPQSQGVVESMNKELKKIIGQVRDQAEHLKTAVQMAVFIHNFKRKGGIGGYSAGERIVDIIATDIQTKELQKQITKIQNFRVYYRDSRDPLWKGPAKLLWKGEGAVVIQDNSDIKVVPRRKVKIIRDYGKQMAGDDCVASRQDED
The following compounds are shown together with reported IC50 values.
# value in nM; strip the unit string

For this compound ( "COc1ccccc1Cn1cc(C(=O)/C=C(\O)C(=O)O)c(=O)c2ccccc21" ), measured IC50 is 38

---

Parameter 'readout' = pIC50; parameter 'system' = Human immunodeficiency virus type 1 integrase (Human immunodeficiency virus 1).
pIC50: −log10 of the molar value.

{"columns": ["GIVEN_SMILES", "pIC50"],
 "data": [
  ["CCOC(=O)/C(O)=C/C(=O)c1cn(Cc2ccc(Cl)cc2)c2ccccc2c1=O", "< 4.43"],
  ["CCOC(=O)/C(O)=C/C(=O)c1cn(Cc2ccc(C)cc2C)c2ccccc2c1=O", "< 3.95"],
  ["CCOC(=O)/C(O)=C/C(=O)c1cn(Cc2ccc([N+](=O)[O-])cc2)c2ccccc2c1=O", "< 4.43"],
  ["CCOC(=O)/C(O)=C/C(=O)c1cn(Cc2ccc(OC)cc2)c2ccccc2c1=O", "< 4.43"]
]}

The record that follows has no pIC50 shown yet.
Reported Human immunodeficiency virus type 1 integrase (Human immunodeficiency virus 1) pIC50 for item "CCOC(=O)/C(O)=C/C(=O)c1cn(Cc2ccc(Cl)cc2Cl)c2ccccc2c1=O" was < 3.95
